Data provenance: PubChem BioAssay (NCI)

- System: HCT-116 colon
- Protocol: NCI tumour cell line growth inhibition, 48 h
Measure: TGI

Data point: O=c1n(CC2CO2)c2ccccc2n1CC1CS1 (stereo not given) ; TGI = > 100 µM

Data point: OC1OC2COC(c3ccccc3)OC2C(O)C1O (stereo not given) ; TGI = > 100 µM

Data point: [B]C(=O)NC(CC(C)C)C(=O)NC1c2ccsc2C(=O)C1O (stereo not given) (tested in a mixture with another compound) ; TGI = > 100 µM

Data point: COC(=O)c1cc(OCc2cc(OCc3ccc(Br)cc3)cc(OCc3ccc(Br)cc3)c2)cc(OCc2cc(OCc3ccc(Br)cc3)cc(OCc3ccc(Br)cc3)c2)c1 ; TGI = > 100 µM

Data point: CC(=O)SC(C[N+](=O)[O-])c1ccccc1 (stereo not given) ; TGI = 4.48 µM

Data point: O=C(O)Cc1ccc(-n2nnc3c(=O)[nH][nH]c(=O)c32)cc1 ; TGI = > 100 µM

Data point: CCC1(O)CC(c2ccccc2)N(C)C(c2ccccc2)C1 (stereo not given) ; TGI = > 100 µM

Data point: COc1ccc(/C=C\c2cc(OC)c(OC(C)=O)c(OC)c2)cc1 ; TGI = > 100 µM

Data point: COC(=O)CC(c1ccccc1)C(C#N)(OP1(=O)OC(c2ccccc2)C(C)N1C)c1ccccc1 (stereo not given) ; TGI = > 100 µM

Data point: CC1(C)OC(=O)C(c2ccsc2)C(=O)O1 ; TGI = > 100 µM

Data point: CCN(CC)C(=O)N1CN(c2ccccc2)C2(CCN(CCCC3(c4ccc(F)cc4)OCCO3)CC2)C1=O ; TGI = 23.9 µM

Data point: COc1ccc(-c2c(C#N)c(N)n(C3OC(COC(C)=O)C(OC(C)=O)C(OC(C)=O)C3OC(C)=O)c(=S)c2C#N)cc1 (stereo not given) ; TGI = > 100 µM

Data point: COC(=O)C(Cc1cc(OC)c(OC)c(OC)c1)(NC(=O)c1ccccc1)P(=O)(OC)OC (stereo not given) ; TGI = > 100 µM

Data point: CC(=O)c1ccc(-c2ccc(C(C)=O)s2)s1 ; TGI = > 100 µM

Data point: COC(=O)/C=C/[C@H]1[C@H](C)N1S(=O)(=O)c1ccc(C)cc1 (stereo not given in full) ; TGI = > 100 µM

Data point: COc1cc(-c2cc(C(=O)N3CCN(C(=O)c4ccccc4NCc4cccs4)CC3)nc3cc(-c4ccccc4)nn23)cc(OC)c1OC ; TGI = > 100 µM

Data point: COc1cc2oc(=O)cc(C)c2c(OC)c1OC ; TGI = > 100 µM

Data point: c1ccc(Oc2cnc3ccccc3n2)cc1 ; TGI = > 100 µM

Data point: COC1=C2C[C@](OC)(C#CC=CC#CC2O)CC1(C)C (stereo not given in full) ; TGI = > 100 µM

Data point: O=C(Nc1ccccn1)c1cc2c(cc1Cl)Sc1nccn1S2(=O)=O ; TGI = > 100 µM

Data point: COc1ccc2nc3c(cc2c1)C(=O)CC(C(F)(F)F)C3 (stereo not given) ; TGI = > 100 µM

Data point: CC(C)(C)OC(=O)/C=C/[C@@H](CCC(=O)/C=C/[C@H](/C=C\CCCC(=O)O)NC1(c2ccccc2)c2ccccc2-c2ccccc21)O[Si](C)(C)C(C)(C)C ; TGI = 30.2 µM

Data point: Cc1nc2c(ccc3[nH]c4ccccc4c32)s1 ; TGI = 37.2 µM

Data point: N#C[C@H](c1nc2ccccc2[nH]1)c1nc2ccccc2nc1Cl ; TGI = 24.2 µM

Data point: COc1cccc(-c2nn(C)c3sc(C(=O)NCCN4CCN(c5ccccc5F)CC4)cc23)c1 ; TGI = > 100 µM

Data point: CCN(CC)C(=O)CCNC(C)Cc1c[nH]c2ccccc12 (stereo not given) ; TGI = > 100 µM

Data point: CC1(C)C/C=C\CCC(O)C(O)CCC(C)(C)C1=O (stereo not given) ; TGI = > 100 µM

Data point: O=C(O)COc1cccc2ccccc(=O)c12 ; TGI = > 100 µM

Data point: O=Cc1ccc(Oc2c3ccccc3nc3ccccc23)cc1 ; TGI = 4.9 µM

Data point: COc1ccc(-c2cc(-c3ccncc3)nc(N)c2-c2ccc(F)cc2)cc1 ; TGI = 51.7 µM

Data point: COc1ccc(OC/C(N=Cc2cccnc2)=N/NC(=O)c2ccncc2)cc1 ; TGI = > 100 µM

Data point: OCC1C2C=CC(O2)[C@H]1CO (stereo not given in full) ; TGI = > 100 µM

Data point: COC(=O)C1=C(C(=O)OC)C2CCC1CC2=O (stereo not given) ; TGI = > 100 µM

Data point: Nc1nc(=O)n(C2CC(O)C(CO)O2)c2nc(-c3ccc(-c4ccccc4)cc3)cnc12 (stereo not given) ; TGI = > 100 µM

Data point: Cn1c(=O)ccc2cc(C(=O)c3ccccc3)ccc21 ; TGI = > 100 µM
